The reported measurements were obtained from patent US20240409629A1.

Hi there, I'd appreciate the recorded ADCC Maximum killing (%), PBMC effector cells, NUGC-4 target cells for every entry that follows.
- target-of-assay: human CLDN18.2 (human)
- method-notes: cell-based or functional assay
Answer with a number only, understood to be in %.

INPUT: For the binder humanized antibody hz40F6-1.4 (antibody, human IgG1, kappa, V domains shown) VH: QVQLVESGGGVVQPGRSLRLSCTVSGFTLTSYGVYWVRQAPGKGLEWVAVVWAGGNTNYNSALKGRFTISKDNSKSTLYLQMNSLRAEDTAVYYCARDRGRLLAMDYWGQGTLVTVSS VL: DIVMTQSPDSLAVSLGERATINCKSSQSLLNSGNQKNYLAWYQQKPGQPPKLLIYGASTRESGVPDRFTGSGSGTDFTLTISSLQAEDVAVYYCQNDHFFPFTFGQGTKVEIKR , what ADCC Maximum killing (%), PBMC effector cells, NUGC-4 target cells is on record?
OUTPUT: 2.83

INPUT: Now consider humanized antibody hz28G3-1.3 (antibody, human IgG1, kappa, V domains shown) VH: QVQLVQSGAEVKKPGASVKVSCKTSGYSFTDYLMLWVRQAHGQSLEWMGNINPYYGRTTYALKFKGRVTMTVDRSTSTVYMELSSLRSEDTAVYYCARDGYSLRNAMDYWGQGTLVTVSS VL: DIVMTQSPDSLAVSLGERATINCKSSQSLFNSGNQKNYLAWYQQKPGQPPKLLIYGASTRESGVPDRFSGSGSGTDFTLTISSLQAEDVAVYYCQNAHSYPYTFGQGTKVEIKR .
OUTPUT: 19
